experiment-notes: Hepatic extraction in rat during hepatic portal vein study
Assay type: ADME
condition-set: read-out: ERH
observed-property: hepatic extraction ratio

chemical-smiles | observed
O=C(NCCN1CCCC1)c1cc(NCCC2CCOCC2)nc2ccc(Cl)cc12 | 0.76

----------
experiment-notes: AUC in NMRI mouse at 10 mg/kg, po administered as gavage by UPLC-MS/MS analysis
Assay type: ADME, organism-based
Parameters: dose 10 mg/kg
condition-set: in vivo
observed-property: AUC

chemical-smiles | observed-property | observed
O=C(NCCN1CCCC1)c1cc(NCCCN2CCOCC2)nc2ccc(F)cc12 | AUC | 1550 ng·h/mL
O=C(NCCN1CCCC1)c1cc(NCCCCN2CCOCC2)nc2ccc(Cl)cc12 | AUC | 2940 ng·h/mL
O=C(NCCN1CCCC1)c1cc(NCCC2CCOCC2)nc2ccc(Cl)cc12 | AUC | 1210 ng·h/mL

----------
experiment-notes: Permeability of the compound at 10 uM incubated for 5 hrs by UPLC-MS/MS analysis based PAMPA method
Type: ADME
condition-set: read-out: permeability

chemical-smiles | Papp at 5 h, 10 µM
O=C(NCCN1CCCC1)c1cc(-c2ccc(S(=O)(=O)N3CCOCC3)cc2)nc2ccc(F)cc12 | 2.9 ×10⁻⁶ cm/s
O=C(NCCN1CCCC1)c1cc(NCCC2CCOCC2)nc2ccc(Cl)cc12 | 4.8 ×10⁻⁶ cm/s
O=C(NCCNC1CC1)c1cc(-c2ccc(CN3CCOCC3)cc2)nc2ccc(F)cc12 | 4.9 ×10⁻⁶ cm/s
O=C(NCCN1CCC(F)(F)CC1)c1cc(NCCCN2CCOCC2)nc2ccc(F)cc12 | 9.4 ×10⁻⁶ cm/s
O=C(NCCN1CCC(F)(F)C1)c1cc(NCCCN2CCOCC2)nc2ccc(F)cc12 | 8.9 ×10⁻⁶ cm/s
O=C(NCCN1CCCC1)c1cc(-c2ccc(CN3CCS(=O)(=O)CC3)cc2)nc2ccc(F)cc12 | 1.4 ×10⁻⁶ cm/s
CN(CCN1CCCC1)C(=O)c1cc(-c2ccc(CN3CCOCC3)cc2)nc2ccc(F)cc12 | 13.7 ×10⁻⁶ cm/s
O=C(NCCN1CCCC1)c1cc(-c2ccc(CN3CCCC3=O)cc2)nc2ccc(F)cc12 | 4.9 ×10⁻⁶ cm/s
O=C(NCCN1CCC(F)CC1)c1cc(NCCCN2CCOCC2)nc2ccc(F)cc12 | 5.8 ×10⁻⁶ cm/s
O=C(NCCN1CCOCC1)c1cc(NCCCN2CCOCC2)nc2ccc(F)cc12 | 2.4 ×10⁻⁶ cm/s
O=C(NCCN1CCCC1)c1cc(NCCCCN2CCOCC2)nc2ccc(Cl)cc12 | 0.2 ×10⁻⁶ cm/s
O=C(NCCN1CCC1)c1cc(-c2ccc(CN3CCOCC3)cc2)nc2ccc(F)cc12 | 7.5 ×10⁻⁶ cm/s
O=C(NCCN1CCCC1)c1cc(-c2ccc(CN3CCOCC3)cc2)nc2ccc(F)cc12 | 7.3 ×10⁻⁶ cm/s
O=C(NCCN1CCCC(F)(F)C1)c1cc(NCCCN2CCOCC2)nc2ccc(F)cc12 | 12 ×10⁻⁶ cm/s
O=C(NCCN1CCCC1)c1cc(NCCCN2CCOCC2)nc2ccc(F)cc12 | 0.23 ×10⁻⁶ cm/s
O=C(NCCN1CCCC1)c1cc(-c2ccc(CN3CCOCC3)c(F)c2)nc2ccc(F)cc12 | 6.3 ×10⁻⁶ cm/s
O=C(NCCN1CCCC1)c1cc(-c2ccc(CN3CCOCC3)cc2F)nc2ccc(F)cc12 | 13.2 ×10⁻⁶ cm/s

----------
experiment-notes: Intrinsic clearance in human liver microsomes at 0.5 uM in presence of NADPH incubated upto 30 mins by UPLC-MS/MS analysis
Assay type: ADME, Microsome
condition-set: 0.5 h

chemical-smiles | CLH
O=C(NCCN1CCCC1)c1cc(-c2ccc(CN3CCCC3=O)cc2)nc2ccc(F)cc12 | 2 mL/min/g
O=C(NCCN1CCCC1)c1cc(NCCCN2CCOCC2)nc2ccc(F)cc12 | < 0.5 mL/min/g
O=C(NCCN1CCCC1)c1cc(NCCC2CCOCC2)nc2ccc(Cl)cc12 | 1 mL/min/g
O=C(NCCN1CCCC1)c1cc(-c2ccc(CN3CCOCC3)cc2F)nc2ccc(F)cc12 | 1.5 mL/min/g
O=C(NCCN1CCCC1)c1cc(NCCCCN2CCOCC2)nc2ccc(Cl)cc12 | < 1 mL/min/g

----------
System: Plasmodium berghei
experiment-notes: Antiplasmodial activity against Plasmodium berghei infected in NMRI mouse assessed as reduction in parasitemia at 3 mg/kg, po QD for 4 days
Format: functional
Parameters: scale not given: the % may be the effect or the level left
condition-set: time 4 day
Catalogue of Activity readings, one per entry.

compound | Activity
O=C(NCCN1CCCC1)c1cc(-c2ccc(CN3CCOCC3)cc2)nc2ccc(F)cc12 [CABAMIQUINE] | 99.9%
O=C(NCCN1CCCC1)c1cc(NCCCCN2CCOCC2)nc2ccc(Cl)cc12 | 96%
O=C(NCCN1CCCC1)c1cc(NCCC2CCOCC2)nc2ccc(Cl)cc12 | 98%
O=C(NCCN1CCC1)c1cc(-c2ccc(CN3CCOCC3)cc2)nc2ccc(F)cc12 | 99.2%

----------
experiment-notes: Intrinsic clearance in Sprague-Dawley rat liver microsomes at 0.5 uM in presence of NADPH incubated upto 30 mins by UPLC-MS/MS analysis
Assay type: ADME, Microsome
condition-set: 0.5 h
Measured CLH, listed per entry for reference.

chemical-smiles | unit-of-measurement | limit-sign | CLH
O=C(NCCN1CCCC1)c1cc(NCCCN2CCOCC2)nc2ccc(F)cc12 | mL/min/g | < | 0.5
O=C(NCCN1CCCC1)c1cc(NCCC2CCOCC2)nc2ccc(Cl)cc12 | mL/min/g | = | 0.8
O=C(NCCN1CCCC1)c1cc(-c2ccc(CN3CCS(=O)(=O)CC3)cc2)nc2ccc(F)cc12 | mL/min/g | = | 0.8
O=C(NCCN1CCCC1)c1cc(-c2ccc(CN3CCOCC3)cc2F)nc2ccc(F)cc12 | mL/min/g | < | 0.5
O=C(NCCN1CCCC1)c1cc(-c2ccc(CN3CCCC3=O)cc2)nc2ccc(F)cc12 | mL/min/g | = | 0.6

----------
experiment-notes: Toxicity in NMRI mouse assessed as maximum tolerated dose administered twice a day for 4 days
condition-set: in vivo, time 4 day

chemical-smiles | MTD at 96 h (mg/kg)
O=C(NCCN1CCCC1)c1cc(NCCCN2CCOCC2)nc2ccc(F)cc12 | 300

----------
experiment-notes: Protein binding in CD1 mouse plasma measured after 5 hr by UPLC-MS/MS analysis based equilibrium dialysis method
Assay type: ADME, cell-free
condition-set: mouse, 5 h
# PPB per entry

chemical-smiles | PPB [%]
O=C(NCCN1CCCC1)c1cc(NCCCN2CCOCC2)nc2ccc(F)cc12 | 59
O=C(NCCN1CCCC1)c1cc(-c2ccc(S(=O)(=O)N3CCOCC3)cc2)nc2ccc(F)cc12 | 75
O=C(NCCN1CCCC1)c1cc(NCCC2CCOCC2)nc2ccc(Cl)cc12 | 77
O=C(NCCN1CCCC1)c1cc(-c2ccc(CN3CCOCC3)cc2Cl)nc2ccc(F)cc12 | 56

----------
experiment-notes: Cmax in Sprague-Dawley rat at 3 mg/kg, po administered via gavage by UPLC-MS/MS analysis
Type: ADME, organism-based
Parameters: route oral, dose 3 mg/kg
condition-set: in vivo
observed-property: Cmax (µg/mL)

chemical-smiles | observed-property | observed
O=C(NCCN1CCCC1)c1cc(-c2ccc(CN3CCOCC3)cc2F)nc2ccc(F)cc12 | Cmax | 0.029

----------
In this section we review reported pEC50 values for a set of compounds.
System: HepG2
experiment-notes: Antiproliferative activity against human HepG2 cells assessed as reduction in cell viability
Format: cell-based
pEC50: −log10 of the molar value.
observed-property: pEC50

chemical-smiles | observed-property | observed
O=C(NCCN1CCC1)c1cc(-c2ccc(CN3CCOCC3)cc2)nc2ccc(F)cc12 | pEC50 | 4.39
CN(CCN1CCCC1)C(=O)c1cc(-c2ccc(CN3CCOCC3)cc2)nc2ccc(F)cc12 | pEC50 | < 4.30
O=C(NCCNC1CC1)c1cc(-c2ccc(CN3CCOCC3)cc2)nc2ccc(F)cc12 | pEC50 | < 4.30

----------
experiment-notes: Half-life in Sprague-Dawley rat at 1 mg/kg, iv administered as bolus dose by UPLC-MS/MS analysis
Format: ADME, organism-based
condition-set: Sprague-Dawley, in vivo

chemical-smiles | unit-of-measurement | half-life
O=C(NCCN1CCCC1)c1cc(-c2ccc(CN3CCOCC3)cc2F)nc2ccc(F)cc12 | h | 4

----------
experiment-notes: Kinetic aqueous solubility of the compound by laser nephelometry
Type: physicochemical
condition-set: read-out: Kinetic_solubility
observed-property: solubility kinetic

chemical-smiles | observed
Cc1ccc(-c2cc(C(=O)Nc3cccnc3)c3cc(Br)ccc3n2)cc1 | 39 µM
O=C(NCCN1CCCC1)c1cc(-c2ccc(CN3CCOCC3)c(F)c2)nc2ccc(F)cc12 | > 208 µM
Cc1ccc(-c2cc(C(=O)NCCN3CCOCC3)c3cc(Cl)ccc3n2)cc1 | 12 µM
Cc1ccc(-c2cc(C(=O)NCCN3CCCC3)c3cc(F)ccc3n2)cc1 | 180 µM
O=C(NCCN1CCCC1)c1cc(-c2ccc(CN3CCCC3=O)cc2)nc2ccc(F)cc12 | > 217 µM
O=C(NCCN1CCCC1)c1cc(-c2ccc(S(=O)(=O)N3CCOCC3)cc2)nc2ccc(F)cc12 | 109 µM
O=C(NCCN1CCCC1)c1cc(NCCC2CCOCC2)nc2ccc(Cl)cc12 | 230 µM
O=C(NCCN1CCC1)c1cc(-c2ccc(CN3CCOCC3)cc2)nc2ccc(F)cc12 | 71 µM
O=C(NCCN1CCCC1)c1cc(-c2ccc(CN3CCS(=O)(=O)CC3)cc2)nc2ccc(F)cc12 | 171 µM
Cc1ccc(-c2cc(C(=O)NCCN3CCCC3)c3cc(Cl)ccc3n2)cc1 | 13 µM
O=C(NCCN1CCCC1)c1cc(NCCCN2CCOCC2)nc2ccc(F)cc12 | 230 µM
O=C(NCCN1CCOCC1)c1cc(-c2ccc(CN3CCOCC3)cc2)nc2ccc(F)cc12 | > 210 µM
Cc1ccc(-c2cc(C(=O)Nc3cccnc3)c3cc(F)ccc3n2)cc1 | 36 µM
O=C(NCCN1CCCC1)c1cc(N2CCC(N3CCOCC3)CC2)nc2ccc(F)cc12 | 220 µM
CN(CCN1CCCC1)C(=O)c1cc(-c2ccc(CN3CCOCC3)cc2)nc2ccc(F)cc12 | > 210 µM
O=C(NCCN1CCCC1)c1cc(-c2ccc(CN3CCOCC3)cc2Cl)nc2ccc(F)cc12 | > 201 µM
O=C(NCCN1CCCC1)c1cc(-c2ccc(CN3CCOCC3)cc2F)nc2ccc(F)cc12 | 208 µM
O=C(NCCN1CCCC1)c1cc(-c2ccc(CN3CCOCC3)cc2)nc2ccc(F)cc12 | 216 µM
O=C(NCCN1CCCC1)c1cc(N2CCC(N3CCOCC3)CC2)nc2ccc(Cl)cc12 | 210 µM
Cc1ccc(-c2cc(C(=O)NCCCN(C)C)c3cc(Cl)ccc3n2)cc1 | 262 µM
O=C(NCCN1CCCC1)c1cc(NCCCCN2CCOCC2)nc2ccc(Cl)cc12 | 217 µM
